tested on: ACHN renal; assay: NCI tumour cell line growth inhibition, 48 h
Measured Quantity: TGI

compound=c1ccc2c[n+](Cc3ccnc4ccccc34)ccc2c1 result_value="> 100 µM"
compound="O=C1N(c2ccccc2)N=C2c3ccncc3C3=NN(c4ccccc4)C(=O)C123 (stereo not drawn)" result_value="> 100 µM"
compound=COc1cccc(/C=N/[N-]C(N)=O)c1[O-].[Cu+2].c1ccncc1 result_value="> 100 µM"

* * *

system: OVCAR-5 ovarian; assay: NCI tumour cell line growth inhibition, 48 h; in the data active = GI50 below about 0.43 µM; inactive = the rest
Outcomes: active, inactive

compound=C=CCOc1ccc2c(c1)CC[C@@H]1[C@@H]2CC[C@]2(C)C(=O)/C(=N/O)C[C@@H]12 category=inactive
compound=COc1cc(Nc2nccc(-c3cnn4ncccc34)n2)cc(OC)c1 category=active
compound="OC(c1cc2c(Cl)cc(Cl)cc2c2cc(C(F)(F)F)ccc12)C1CCCCN1 (centres undefined)" category=inactive
compound=O=c1c(Br)ccc(Br)cc1Br category=inactive

* * *

tested on: NCI-H522 lung; assay: NCI tumour cell line growth inhibition, 48 h
Measured Quantity: TGI

compound="O=[N+]([O-])c1cc(C2ON=C(c3ccccc3)N2C23CC4CC(CC(C4)C2)C3)ccc1Cl (stereo not given)" test_target="NCI-H522 lung" measured_quantity=TGI result_value="> 100 µM"
compound="COc1ccc(/C=C2/C(=O)C(c3ccccc3)N(c3ccccc3)C2=O)cc1OC (stereo not given)" test_target="NCI-H522 lung" measured_quantity=TGI result_value="> 10 µM"
compound=CNC(=S)c1nnsc1N test_target="NCI-H522 lung" measured_quantity=TGI result_value="> 100 µM"
compound="COC(=O)C1=C(C(=O)OC)C2CCC1CC2=O (stereo not given)" test_target="NCI-H522 lung" measured_quantity=TGI result_value="> 100 µM"
compound=O=C(Nc1ccccn1)c1cc2c(cc1Cl)Sc1nccn1S2(=O)=O test_target="NCI-H522 lung" measured_quantity=TGI result_value="> 100 µM"
compound=COc1cc(C2C(C(=O)Nc3ccccc3C)=C(C)NC(C)=C2C(=O)Nc2ccccc2C)ccc1O test_target="NCI-H522 lung" measured_quantity=TGI result_value="> 100 µM"
compound=NC(=O)NC(=O)c1cccc(C(=O)NC(N)=O)n1 test_target="NCI-H522 lung" measured_quantity=TGI result_value="> 100 µM"
compound="CCOC(=O)C1=CN(Cc2ccccc2)C2ON=C(c3ccc(Cl)cc3)C2C1 (stereo not given)" test_target="NCI-H522 lung" measured_quantity=TGI result_value="> 49.6 µM"
compound=CN1CCN2CCN(C)CCN(CC1)CC2 test_target="NCI-H522 lung" measured_quantity=TGI result_value="> 100 µM"
compound=Nc1nc(N)c(N=Nc2ccc([As](=O)(O)O)c(O)c2)c(N)n1 test_target="NCI-H522 lung" measured_quantity=TGI result_value="> 31 µM"

* * *

Items are presented alongside their recorded TGI.
system: SF-268 CNS; assay: NCI tumour cell line growth inhibition, 48 h
Measured Quantity: TGI

compound="OC1OC2COC(c3ccccc3)OC2C(O)C1O (stereo not given)" result_value="> 100 µM"
compound=CN1CCN(C(=S)N(C(=O)c2ccc(Cl)cc2)C2CCCCC2)CC1 result_value="> 100 µM"
compound=COc1ccc(/C=C/c2cnnc3ccccc23)cc1OC result_value="> 10 µM"
compound=Nc1c(S(=O)(=O)O)cc2c(c1Cl)C(=O)c1ccccc1C2=O result_value="> 100 µM"
compound=COC(=O)C1=CCS(=O)(=O)C1 result_value="> 100 µM"
compound="ClC1(Cl)C2CCOC21n1cnc2ccccc21 (stereo not given)" result_value="> 100 µM"
compound=O=C(CCCN1CCC(Nc2ccc(F)cc2)(c2nnnn2C2CCCCC2)CC1)c1ccc(F)cc1 result_value="33.9 µM"
compound=Cc1nc2ccccc2n1Cc1ccc(NC(=S)NC2CCCCC2)cc1 result_value="> 100 µM"
compound=CC(=O)O[C@H]1CC[C@@]2(C)[C@@H](CC[C@@H]3[C@@H]2CC(=O)[C@@]2(C)[C@H]3C[C@@H]3CC(C)=CC(=O)[C@@H]32)C1 result_value="> 100 µM"
compound=O=C1OCC(CN2CCC(n3c(=O)[nH]c4ccccc43)CC2)=C1c1ccccc1 result_value="95.5 µM"
